molecular target: EPHB4 (Homo sapiens); construct: purchased ReactionBiology; assay: Kinase activity test (ReactionBiology), % enzyme activity relative to DMSO; assay type: biochemical; conditions: EPHB4; 1 uM; Average;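 also: EPHB4 was one of ten selected kinases in the screening panel, with enzyme activity expressed as a percentage of DMSO controls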
Sequence (P54760 16-987): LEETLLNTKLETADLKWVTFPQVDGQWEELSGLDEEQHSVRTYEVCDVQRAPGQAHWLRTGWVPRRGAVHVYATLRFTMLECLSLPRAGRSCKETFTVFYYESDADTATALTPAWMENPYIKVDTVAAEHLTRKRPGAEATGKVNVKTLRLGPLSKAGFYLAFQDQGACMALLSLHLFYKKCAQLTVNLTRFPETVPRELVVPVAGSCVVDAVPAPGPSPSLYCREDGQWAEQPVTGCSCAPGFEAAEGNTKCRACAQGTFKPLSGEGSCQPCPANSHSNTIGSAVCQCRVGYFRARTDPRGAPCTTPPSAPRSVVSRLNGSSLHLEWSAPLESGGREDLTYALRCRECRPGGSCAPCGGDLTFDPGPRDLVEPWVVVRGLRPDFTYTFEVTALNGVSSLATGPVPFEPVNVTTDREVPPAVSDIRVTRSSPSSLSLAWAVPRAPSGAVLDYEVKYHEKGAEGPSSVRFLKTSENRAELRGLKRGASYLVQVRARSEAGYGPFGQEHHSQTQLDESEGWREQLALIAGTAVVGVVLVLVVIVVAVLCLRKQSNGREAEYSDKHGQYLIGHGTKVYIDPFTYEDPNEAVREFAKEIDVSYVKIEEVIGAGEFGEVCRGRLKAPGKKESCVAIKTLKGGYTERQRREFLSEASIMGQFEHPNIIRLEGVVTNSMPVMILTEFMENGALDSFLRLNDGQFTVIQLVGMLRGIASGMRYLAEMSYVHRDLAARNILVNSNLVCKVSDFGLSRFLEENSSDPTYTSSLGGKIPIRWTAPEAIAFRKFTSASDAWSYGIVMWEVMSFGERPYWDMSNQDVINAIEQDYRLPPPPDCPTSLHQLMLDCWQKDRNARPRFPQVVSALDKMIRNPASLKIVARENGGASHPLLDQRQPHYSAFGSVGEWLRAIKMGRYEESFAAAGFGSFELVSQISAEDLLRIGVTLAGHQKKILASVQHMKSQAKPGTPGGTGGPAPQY
Measured % Enzyme Activity (relative to DMSO controls), Average accompanies every entry in the list below.
property measured: % Enzyme Activity (relative to DMSO controls), Average (%)

INSERT INTO assay_data (compound, unit_of_measurement, reported_result) VALUES
  ('CCCCC1C(=O)N(c2ccccc2)N(c2ccccc2)C1=O [Phenylbutazone]', '%', 101.67),
  ('Fc1ccc([C@@H]2CCNC[C@H]2COc2ccc3c(c2)OCO3)cc1 [Paroxetine]', '%', 110.35),
  ('C[C@]12CCC(=O)C=C1CC[C@@H]1[C@@H]2[C@@H](O)C[C@@]2(C)[C@H]1CC[C@]2(O)C(=O)CO [Hydrocortisone]', '%', 102.86),
  ('COc1ccc2c3c1O[C@H]1C[C@@H](O)C=C[C@@]31CCN(C)C2 [Galantamine]', '%', 104.29),
  ('C[C@H]1O[C@@H](O[C@H]2[C@@H](O)C[C@H](O[C@H]3[C@@H](O)C[C@H](O[C@H]4CC[C@@]5(C)[C@H](CC[C@@H]6[C@@H]5C[C@@H](O)[C@]5(C)[C@@H](C7=CC(=O)OC7)CC[C@]65O)C4)O[C@@H]3C)O[C@@H]2C)C[C@H](O)[C@@H]1O [Digoxin]', '%', 101.58),
  ('O=C1c2cccc3c2[C@H](CCC3)CN1[C@@H]1CN2CCC1CC2 [Palonosetron]', '%', 97.11),
  ('CS(=O)(=O)c1ccc(C2=C(c3ccccc3)C(=O)OC2)cc1 [Rofecoxib]', '%', 93.84),
  ('Cc1ccc(-c2cc(C(F)(F)F)nn2-c2ccc(S(N)(=O)=O)cc2)cc1 [Celecoxib]', '%', 103.20),
  ('C/C(O)=C(\C#N)C(=O)Nc1ccc(C(F)(F)F)cc1 [Teriflunomide]', '%', 101.51),
  ('O=C(N[C@H](CO)[C@H](O)c1ccc([N+](=O)[O-])cc1)C(Cl)Cl [Chloramphenicol]', '%', 98.03);

* * *

biological target: NEK2 (Homo sapiens, UniProt P51955); construct: purchased ReactionBiology; assay: Kinase activity test (ReactionBiology), % enzyme activity relative to DMSO; format: biochemical; details: NEK2; 10 uM; replicate Data 2; read-out: % Enzyme Activity (relative to DMSO controls), Data 2;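 as to % Enzyme Activity (relative to DMSO controls), Data 2: FDA-approved drugs chosen by structure-based repositioning, each screened at 10 or 1 µM for kinase activity, expressed as percent of DMSO controls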
Sequence (P51955 whole entry): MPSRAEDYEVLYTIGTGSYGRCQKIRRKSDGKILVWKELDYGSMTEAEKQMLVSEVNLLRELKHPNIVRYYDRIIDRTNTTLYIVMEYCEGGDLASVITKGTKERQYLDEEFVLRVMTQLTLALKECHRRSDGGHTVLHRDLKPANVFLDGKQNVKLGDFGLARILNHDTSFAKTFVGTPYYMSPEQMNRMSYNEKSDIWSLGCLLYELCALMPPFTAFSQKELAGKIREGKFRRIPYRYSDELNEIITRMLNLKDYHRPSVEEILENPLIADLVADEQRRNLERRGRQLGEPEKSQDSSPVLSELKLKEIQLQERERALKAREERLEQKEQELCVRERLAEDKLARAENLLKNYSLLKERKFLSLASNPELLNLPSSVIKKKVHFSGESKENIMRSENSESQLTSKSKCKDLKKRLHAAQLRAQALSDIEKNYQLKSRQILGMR
property measured: remaining activity at 10 µM (%)

INSERT INTO assay_data (compound, target_entity, reported_result) VALUES
  ('Nc1ncnc2c1ncn2[C@@H]1O[C@H](CO)[C@@H](O)[C@H]1O [Adenosine, reference compound]', 'NEK2 (Homo sapiens, UniProt P51955)', 66.2),
  ('O=C(O)c1ccccc1O', 'NEK2 (Homo sapiens, UniProt P51955)', 109),
  ('Cc1nc(Nc2ncc(C(=O)Nc3c(C)cccc3Cl)s2)cc(N2CCN(CCO)CC2)n1 [Dasatinib, reference compound]', 'NEK2 (Homo sapiens, UniProt P51955)', 18),
  ('C[C@]12CC[C@@H]3c4ccc(O)cc4CC[C@H]3[C@@H]1CC[C@@H]2O [Estradiol, reference compound]', 'NEK2 (Homo sapiens, UniProt P51955)', 83);

This collection of values is drawn from paper PMC7252619.
